Biological target: T1, CD27 expressed on the cell surface (HT1080_CD27 cells) (human, UniProt P26842 20-260)
T1 construct: whole, on cells; also called K562_CD27
T1 sequence (looked up): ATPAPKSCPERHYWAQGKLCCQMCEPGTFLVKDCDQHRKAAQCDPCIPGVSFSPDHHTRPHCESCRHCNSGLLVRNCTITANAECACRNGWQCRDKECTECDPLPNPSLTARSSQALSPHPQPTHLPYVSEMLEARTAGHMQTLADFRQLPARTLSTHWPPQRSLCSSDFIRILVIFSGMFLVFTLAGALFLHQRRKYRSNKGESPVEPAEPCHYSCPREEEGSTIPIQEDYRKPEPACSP
Assay: cellular binding assay, HT1080_CD27 cells; further: test concentration or dose not given here
The following binders are shown together with reported Cellular binding assay [RFU] values.
Enter your answer as a number in RFU; do not include the unit.

• P018.S.07.A.B03 (antibody, V domains shown, V regions on human Ig constant parts; also called AB27_115) VH: QSVEESGGRLVTPGTPLTLTCTVSGFSLSSYAMGWVRQAPGKGLEWIGDIYGSGSTYYASWAKGRFTFSRTSTTVDLKMTSLTTEDTATYFCARSKGYNYNLWNLWGQGTLVTVSS VL: DIVMTQTPSSVSAAVGGTVTINCQASQNIYTNLAWYQQKPGQRPKLLIYDASDLASGVPSRFSGSGSGTEYTLTISDLESADAATYYCQTYSYSGSSSANPFGGGTEVVVK = 346

# input for lookup
Q: Cellular binding assay [RFU] lookup needed for P018.S.10.A.H01 (antibody, V domains shown, V regions on human Ig constant parts; also called AB27_184) VH: QEQLEESGGDLVKPGASLTLTCTASGFSFSSDYDMCWVSQAPGKGLEWIACIIGGSSDSTWYASWAKGRFTISKTSSTTVTLQVTGLTAADTATYFCARNVGFSYYDLWGPGTLVTVSS VL: AQVLTQTPSPVSAAVGGTVTINCQASQSLYNNKNLAWYQQKPGQPPKLLIYYASTLASGVSSRFKGSGSGTQFTLTISGVQSDDAATYYCQGEFSCSSGDCFAFGGGTEVVVK , thanks.
A: 443
